Let's look at some compounds and their measured growth.
System: CAKI-1 renal
Test: NCI-60 one-dose screen, 48 h (100 = growth as untreated, 0 = no growth, -100 = all killed)
Conditions: 10 µM unless noted
Method: Growth inhibition of the CAKI-1 human tumor cell line is measured as a screen for anti-cancer activity. Cells are grown in 96 well plates and exposed to the test compound for 48 hours. Compounds are tested at a single concentration, which is 10^-5 M for most compounds. The reported endpoint is percent growth (GI% or GIPRCNT), where numbers from 0 - 100% represent growth inhibition, and numbers from -100% - 0 represent cell death. For example, a value of 40 represents 60% growth inhibition. […]
Compounds without any hit were thinned out: in the full panel of roughly 83,000, 20% have a hit.
Endpoint: growth (%)

[[record]]
compound = "CC(=C(c1ccc(OCCCN(C)C)cc1)c1ccc(OCCCN(C)C)cc1)c1ccc(Cl)cc1"
reported = 92.6

[[record]]
compound = "Cc1ccc(C)c(NC2=C(Cl)C(=O)c3nc(C)ccc3C2=O)c1"
reported = 57

[[record]]
compound = "CC1=C(C)C(=O)C(Nc2ccc3c(c2)OCO3)=C(Br)C1=O"
reported = 95.6

[[record]]
compound = "C#Cc1cc(C(=O)Nc2ccc(CNCCN3CCOCC3)c(C(F)(F)F)c2)ccc1C"
reported = 82.7

[[record]]
compound = "CC1=C(C)C(=O)C(Nc2ccc3c(c2)OCCO3)=C(Br)C1=O"
reported = 102

[[record]]
compound = "C[C@H]1OCC2(CCN(c3cnc(C(=O)Nc4cc(F)cc5cccnc45)cn3)CC2)[C@H]1N"
reported = 40.9

[[record]]
compound = "O=C(Nc1cccc(Cl)c1)Nc1nc2cc([N+](=O)[O-])ccc2o1"
reported = 62

[[record]]
compound = "CC(=O)c1cc(C(=O)N2c3ccccc3Sc3ccccc32)n2c1ccc1ccccc12"
reported = 46.8

[[record]]
compound = "Cc1ccsc1[C@H]1c2[nH]c3ccccc3c2C[C@H]2C(=O)N(CCCCCCC(=O)NO)CC(=O)N12"
reported = 90.6

[[record]]
compound = "CCCCc1nc2c(N)nc3ccccc3c2n1Cc1cccc(CN)c1"
reported = 14.2

[[record]]
compound = "CC1=C(SCC(=O)OCCCCCC(C)C)C(=O)c2ccccc2C1=O"
reported = 80.3

[[record]]
compound = "Cc1[nH]c(C(=O)Nc2ccccc2OCc2cccc(C(=O)NC3CCNC3)c2)c(Cl)c1Cl (stereo not given)"
reported = 27.5

[[record]]
compound = "COc1ccc2c(c1)c(-c1nn3cc(-c4ccncc4)nc3s1)cn2C"
reported = 50.6

[[record]]
compound = "COc1ccc(C2C(C#N)=C(/N=C/c3ccc(Cl)cc3)Oc3c2sc2c(C)cccc32)cc1 (stereo not given)"
reported = 39

[[record]]
compound = "CC(C)(C)Nc1nc2c(OCCc3ccccc3)cccn2c1-c1cccc(Oc2ccccc2)c1"
reported = 8.12

[[record]]
compound = "COC(=O)c1ccc(NC2=C(Cl)C(=O)c3nc(C)ccc3C2=O)cc1"
reported = 80.2

[[record]]
compound = "CCCCN1C(=O)/C(=c2\\sc3n(c2=O)C2C(NN=3)N(CC)C(=O)N2CC)c2cc(C)ccc21 (stereo not given)"
reported = 58.1

[[record]]
compound = "O=C1Nc2ccccc2/C1=N\\c1nnc(-c2ccccc2)o1"
reported = 88.2

[[record]]
compound = "COc1cc(NC(=O)Nc2cccc(-c3cc(=O)c4c(OC)c(OC)c(OC)cc4o3)c2)cc(OC)c1OC"
reported = 35.4

[[record]]
compound = "CCCC[n+]1ccc(SCC(=O)n2ccc3ccccc32)c2ccccc21"
reported = 81.9

